- Organism: Rattus norvegicus
- assay-explanation: Open TG-GATES - Regimen: Daily Repeat
- Format: toxicity, organism-based, Sprague-Dawley
- Set-up: regimen Daily Repeat, gender Male, age 6 weeks
- experimental-context: in vivo, po, 0 mg/kg, […], tissue Blood, route gavage, dose level Control, time 28 day

| molecule | MCHC / % |
| --- | --- |
| CCN(CC)N=O | 36.6 |
| CC(=O)Nc1ccc2c(c1)Cc1ccccc1-2 | 34.7 |
| O=C(O)COc1nn(Cc2ccccc2)c2ccccc12 | 33.7 |
| CC(=O)N1CCN(c2ccc(OCC3COC(Cn4ccnc4)(c4ccc(Cl)cc4Cl)O3)cc2)CC1 (stereo not drawn) | 34.3 |
| CC(CCc1ccccc1)NCC(O)c1ccc(O)c(C(N)=O)c1 (stereo not drawn) | 34.8 |
| CC[C@@H](CO)NCCN[C@@H](CC)CO | 34.4 |
| CC(N)=O [ACETAMIDE] | 32.8 |
| CC(C)Cc1ccc(C(C)C(=O)O)cc1 (stereo not drawn) | 34.4 |

###

Quick reference for PL among some compounds
- Species on record: Rattus norvegicus
- assay-explanation: Open TG-GATES - Regimen: Single
- Format: toxicity, organism-based, Sprague-Dawley
- Set-up: regimen Single, gender Male, age 6 weeks
- experimental-context: in vivo, po, 0 mg/kg, 3 h, tissue Plasma, route gavage, dose level Control
measured-parameter: PL (mg/dL)

| compound | unit-of-measurement | reported-value |
| --- | --- | --- |
| CC[C@@H](CO)NCCN[C@@H](CC)CO | mg/dL | 137.2 |
| CC(=O)N1CCN(c2ccc(OCC3COC(Cn4ccnc4)(c4ccc(Cl)cc4Cl)O3)cc2)CC1 (configuration not stated) | mg/dL | 135 |
| CC(=O)Nc1ccc2c(c1)Cc1ccccc1-2 | mg/dL | 141.6 |
| CCN(CC)N=O | mg/dL | 132.8 |
| CC(CCc1ccccc1)NCC(O)c1ccc(O)c(C(N)=O)c1 (configuration not stated) | mg/dL | 141.8 |
| CC(C)Cc1ccc(C(C)C(=O)O)cc1 (configuration not stated) | mg/dL | 130.4 |
| O=C(O)COc1nn(Cc2ccccc2)c2ccccc12 | mg/dL | 145.4 |

###

Quick reference for Eos among some molecules
- Species: Rattus norvegicus
- assay-explanation: Open TG-GATES - Regimen: Daily Repeat
- Type: toxicity, organism-based, Sprague-Dawley
- Set-up: regimen Daily Repeat, gender Male, age 6 weeks
- experimental-context: in vivo, po, 0 mg/kg, […], tissue Blood, route gavage, dose level Control, time 28 day
measured-parameter: Eos (%)

| molecule | measured-parameter | reported-value |
| --- | --- | --- |
| CC(C)Cc1ccc(C(C)C(=O)O)cc1 (stereo not drawn) | Eos | 1.2 |
| O=C(O)COc1nn(Cc2ccccc2)c2ccccc12 | Eos | 1 |
| CC[C@@H](CO)NCCN[C@@H](CC)CO | Eos | 1.2 |
| CC(=O)N1CCN(c2ccc(OCC3COC(Cn4ccnc4)(c4ccc(Cl)cc4Cl)O3)cc2)CC1 (stereo not drawn) | Eos | 1 |
| CC(N)=O [ACETAMIDE] | Eos | 1 |
| CC(CCc1ccccc1)NCC(O)c1ccc(O)c(C(N)=O)c1 (stereo not drawn) | Eos | 1.2 |
| CC(=O)Nc1ccc2c(c1)Cc1ccccc1-2 | Eos | 1 |
| CCN(CC)N=O | Eos | 1.4 |
